Values from patent US11827609B2

Listing of recorded AC50 by entry.
Test system: IL12p40
Experiment: Cytokine profiling assay in human PBMCs, IL12p40 detection (MSD)
Format: cell-based
Settings: PBMC; cryopreserved human PBMCs, 24 hours at 37° C., half-maximal effect on normalized percent activation

STRUCTURE_SMILES	TESTED_ON	UNIT_SPEC	AC50
CCCC[C@](C)(CNC(C)=O)Nc1nc(N)nc2cc(F)ccc12	IL12p40	nM	8.83
CCCC[C@H](CNC(C)=O)Nc1nc(N)nc2cc(F)ccc12	IL12p40	nM	433
CCCC[C@](C)(CNC(C)=O)Nc1nc(N)nc2cc(F)c(F)cc12	IL12p40	nM	703
CCCC[C@](C)(CNC(C)=O)Nc1nc(N)nc2c1CCN(C(C)=O)C2	IL12p40	nM	3630
